Measured values drawn from patent US20150210624A1 for this set.

experiment: In vivo pharmacokinetic study in rats, IV and PO dosing (Example 6); conditions: plasma; rat, 200 mg/kg PO, mean; calculated up to 4 hr
Where a name gives a salt, the structure may show the parent alone.
Property: half-life; scope: individual molecules

molecule: [2H]C([2H])(O)CC([2H])([2H])C(=O)[O-].[Na+] [IV-b, sodium salt, Sodium 2,2,4,4-d4-4-hydroxybutanoate]
half-life: 56.4 min
--
molecule: O=C(O)CCCO [4-hydroxybutyric acid, sodium salt, sodium salt of 4-hydroxybutyric acid, reference compound]
half-life: 36.6 min
--
molecule: [2H]C([2H])(CCO)C(=O)[O-].[Na+] [sodium 2,2-dideutero-4-hydroxybutanoate]
half-life: 35.4 min
